- experimentNotes: Half life in rat at 0.35 mg/kg /kg, iv administered as single dose
- Format: ADME, organism-based
- assaySetup: in vivo
measuredQuantity: half-life (min)

{"chemicalString": "CC(=O)c1cc(C)c(O)c(Cc2[nH]c3ccccc3c2Cc2c(O)c(C)cc(C(C)=O)c2O)c1O", "measValue": 288}

----------
- experimentNotes: Elimination half life in mouse at 0.5 mg/kg, iv administered as single dose
- Type: ADME, organism-based
- assaySetup: in vivo, read-out: beta t1/2 (converted)
measuredQuantity: half-life (h)

{"chemicalString": "CC(=O)c1cc(C)c(O)c(Cc2[nH]c3ccccc3c2Cc2c(O)c(C)cc(C(C)=O)c2O)c1O", "unitInfo": "h", "measValue": 3.4}

----------
- experimentNotes: Cumulative drug excretion in rat urine at 0.35mg/kg, iv administered as single dose measured after 72 hrs
- Type: ADME, organism-based
- assaySetup: read-out: Drug excretion

{"chemicalString": "CC(=O)c1cc(C)c(O)c(Cc2[nH]c3ccccc3c2Cc2c(O)c(C)cc(C(C)=O)c2O)c1O", "dose excreted at 72 h, %": 0.006}

Recorded values, source ChEMBL document CHEMBL4619773.
